procedure_details: in vivo
test_parameters: male, Sprague Dawley, rat
test_readout: Tmax

Looking up Cc1cccc([C@H](C)c2cnc[nH]2)c1C , I found its Tmax recorded as 30 to 60 min

---

system_name: human α2C adrenergic receptor (Homo sapiens)
Sequence (P18825 whole entry): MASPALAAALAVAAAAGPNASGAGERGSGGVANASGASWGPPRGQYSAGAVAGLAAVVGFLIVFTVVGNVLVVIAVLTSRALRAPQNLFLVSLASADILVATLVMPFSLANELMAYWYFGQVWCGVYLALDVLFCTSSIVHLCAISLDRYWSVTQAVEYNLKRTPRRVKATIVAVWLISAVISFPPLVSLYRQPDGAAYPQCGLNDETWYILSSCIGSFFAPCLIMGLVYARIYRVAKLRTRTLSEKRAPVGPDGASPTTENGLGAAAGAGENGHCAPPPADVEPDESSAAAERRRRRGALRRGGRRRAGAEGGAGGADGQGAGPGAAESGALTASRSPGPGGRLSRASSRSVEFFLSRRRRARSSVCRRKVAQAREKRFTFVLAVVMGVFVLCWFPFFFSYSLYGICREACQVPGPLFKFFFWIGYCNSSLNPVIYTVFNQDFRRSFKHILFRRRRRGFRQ
procedure_details: [35S]GTPγS binding assay, α2C
test_parameters: α2CR; [35S]GTPγS binding
test_readout: EC50 (nM)
Expressed in nM, but write only the number.

compound	EC50 [nM]
CC(Oc1c(Cl)cccc1Cl)C1=NCCN1 (centres unmarked)	23

Moving on to another compound below.
Per the reported human α2C adrenergic receptor (Homo sapiens) data, Cc1cccc([C@H](C)c2cnc[nH]2)c1C has EC50 of 14
